# assayed system: Serine/threonine-protein kinase PAK 5 (Homo sapiens);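 also: values are mean percent inhibition of PAK5 from a kinase inhibitor set screen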
# stated conditions: at 0.1 µM
Overview of reported inhibition across a group of compounds:
Supply the numeric figure in %, leaving out any unit text.

| structure string | assayed system | inhibition / % |
| --- | --- | --- |
| Nc1nccc(C#Cc2cncnc2Nc2ccc(OCc3cccc(F)c3)c(Cl)c2)n1 | Serine/threonine-protein kinase PAK 5 (Homo sapiens) | 3.29 |
| O=C1Nc2ccc(-c3cccnc3)cc2C1=Cc1cc(Br)c(O)c(Br)c1 | Serine/threonine-protein kinase PAK 5 (Homo sapiens) | 0.53 |
| NC(=O)c1cccc(Nc2nccc(Nc3cccc(F)c3)n2)c1 | Serine/threonine-protein kinase PAK 5 (Homo sapiens) | -1.35 |
| NS(=O)(=O)c1ccc(N/N=C2\C(=O)Nc3ccc(Cl)cc32)cc1 | Serine/threonine-protein kinase PAK 5 (Homo sapiens) | 4.18 |
| NS(=O)(=O)c1cccc(Nc2cc(-c3ccc(F)cc3)n[nH]2)c1 | Serine/threonine-protein kinase PAK 5 (Homo sapiens) | 10.3 |
| COc1cc2ncn(-c3cc(OCc4ccccc4S(C)(=O)=O)c(C#N)s3)c2cc1OC | Serine/threonine-protein kinase PAK 5 (Homo sapiens) | 3.87 |
| Cc1cc(O)cc(C)c1/C=C/c1cncc(C(=O)N(C)C)c1 | Serine/threonine-protein kinase PAK 5 (Homo sapiens) | 3.14 |
| COc1ccc2ncnc(Nc3ccc(OCc4ccccc4)cc3)c2c1 | Serine/threonine-protein kinase PAK 5 (Homo sapiens) | -6.57 |
| CN1CCN(C(=O)c2ccc(NC(=O)Nc3ccc(N(C)c4ccnc(Nc5ccc(CS(C)(=O)=O)cc5)n4)cc3)cc2)CC1 | Serine/threonine-protein kinase PAK 5 (Homo sapiens) | 3.35 |

Turning to the following compound.
Entry FC(F)(F)c1ccc(-c2nn3ncccc3c2-c2ccnc(Nc3ccc4c(c3)OCCO4)n2)cc1 ; inhibition = 6.24

* * *

# assayed system: Non-receptor tyrosine-protein kinase TYK2 (Homo sapiens) (UniProt P29597);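 also: values are mean percent inhibition of TYK2 kinase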
# Sequence (P29597 whole entry): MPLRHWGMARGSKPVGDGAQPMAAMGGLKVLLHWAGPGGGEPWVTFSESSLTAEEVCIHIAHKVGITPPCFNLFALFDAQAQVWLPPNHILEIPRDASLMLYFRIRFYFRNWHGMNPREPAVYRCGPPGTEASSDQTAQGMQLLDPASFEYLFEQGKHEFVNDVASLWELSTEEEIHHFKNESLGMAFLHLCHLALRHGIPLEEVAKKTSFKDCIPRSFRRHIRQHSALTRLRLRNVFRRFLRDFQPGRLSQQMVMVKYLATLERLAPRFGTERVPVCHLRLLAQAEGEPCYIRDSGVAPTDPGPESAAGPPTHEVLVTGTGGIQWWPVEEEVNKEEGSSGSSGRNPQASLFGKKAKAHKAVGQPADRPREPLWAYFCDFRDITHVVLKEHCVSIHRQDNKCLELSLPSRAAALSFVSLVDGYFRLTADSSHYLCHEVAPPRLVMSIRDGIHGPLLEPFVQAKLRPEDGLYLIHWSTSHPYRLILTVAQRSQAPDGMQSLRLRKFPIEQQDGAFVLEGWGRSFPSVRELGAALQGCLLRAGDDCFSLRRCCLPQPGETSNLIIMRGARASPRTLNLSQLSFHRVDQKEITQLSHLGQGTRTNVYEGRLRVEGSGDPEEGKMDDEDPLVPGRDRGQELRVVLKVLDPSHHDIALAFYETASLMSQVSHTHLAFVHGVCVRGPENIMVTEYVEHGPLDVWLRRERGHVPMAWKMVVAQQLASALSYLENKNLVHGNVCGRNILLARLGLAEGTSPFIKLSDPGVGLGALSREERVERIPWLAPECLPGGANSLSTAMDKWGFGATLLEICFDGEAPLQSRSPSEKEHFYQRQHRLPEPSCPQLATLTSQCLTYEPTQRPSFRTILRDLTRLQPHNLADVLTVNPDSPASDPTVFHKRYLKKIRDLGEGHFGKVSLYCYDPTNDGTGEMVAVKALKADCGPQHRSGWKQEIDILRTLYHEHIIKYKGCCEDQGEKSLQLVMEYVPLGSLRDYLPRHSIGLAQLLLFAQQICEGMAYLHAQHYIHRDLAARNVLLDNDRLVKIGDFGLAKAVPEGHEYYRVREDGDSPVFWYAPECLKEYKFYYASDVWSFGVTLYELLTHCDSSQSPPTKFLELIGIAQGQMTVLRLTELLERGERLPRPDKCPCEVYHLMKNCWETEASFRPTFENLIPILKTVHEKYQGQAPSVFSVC
# stated conditions: at 1 µM
measure name: inhibition (%)
Note: unit % is implicit; provide only the numeric part.

Example entries begin here.
| structure string | value units | result |
| --- | --- | --- |
| O=C1Nc2ccccc2/C1=C/Nc1ccc2[nH]c(=O)[nH]c2c1 | % | 18.7 |
| Cc1ccc(C(=O)NC2CC2)cc1-c1ccc2[nH]ncc2c1 | % | 2.43 |

Looking up NS(=O)(=O)c1ccc(-c2cc3ccncc3cc2OCc2ccccc2)cc1 , I found its inhibition recorded as -0.94

Looking up CS(=O)(=O)CCNCc1nc(-c2ccc3ncnc(Nc4ccc(OCc5cccc(C(F)(F)F)c5)cc4)c3c2)cs1 , I see its inhibition listed as -0.77

inhibition in this record for CCS(=O)(=O)c1ccc(OC)c(Nc2nccc(N(C)c3ccc4c(C)n[nH]c4c3)n2)c1 : -2.86

So for NS(=O)(=O)c1ccc(Nc2cc(-c3cccc(O)c3)n[nH]2)cc1 , the logged inhibition turned out to be -3.05

* * *

# assayed system: Tyrosine-protein kinase JAK2 (Homo sapiens) (UniProt O60674);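 also: mean percent inhibition of JAK2 activity, from the GSK PKIS kinase panel screen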
# Sequence (O60674 whole entry): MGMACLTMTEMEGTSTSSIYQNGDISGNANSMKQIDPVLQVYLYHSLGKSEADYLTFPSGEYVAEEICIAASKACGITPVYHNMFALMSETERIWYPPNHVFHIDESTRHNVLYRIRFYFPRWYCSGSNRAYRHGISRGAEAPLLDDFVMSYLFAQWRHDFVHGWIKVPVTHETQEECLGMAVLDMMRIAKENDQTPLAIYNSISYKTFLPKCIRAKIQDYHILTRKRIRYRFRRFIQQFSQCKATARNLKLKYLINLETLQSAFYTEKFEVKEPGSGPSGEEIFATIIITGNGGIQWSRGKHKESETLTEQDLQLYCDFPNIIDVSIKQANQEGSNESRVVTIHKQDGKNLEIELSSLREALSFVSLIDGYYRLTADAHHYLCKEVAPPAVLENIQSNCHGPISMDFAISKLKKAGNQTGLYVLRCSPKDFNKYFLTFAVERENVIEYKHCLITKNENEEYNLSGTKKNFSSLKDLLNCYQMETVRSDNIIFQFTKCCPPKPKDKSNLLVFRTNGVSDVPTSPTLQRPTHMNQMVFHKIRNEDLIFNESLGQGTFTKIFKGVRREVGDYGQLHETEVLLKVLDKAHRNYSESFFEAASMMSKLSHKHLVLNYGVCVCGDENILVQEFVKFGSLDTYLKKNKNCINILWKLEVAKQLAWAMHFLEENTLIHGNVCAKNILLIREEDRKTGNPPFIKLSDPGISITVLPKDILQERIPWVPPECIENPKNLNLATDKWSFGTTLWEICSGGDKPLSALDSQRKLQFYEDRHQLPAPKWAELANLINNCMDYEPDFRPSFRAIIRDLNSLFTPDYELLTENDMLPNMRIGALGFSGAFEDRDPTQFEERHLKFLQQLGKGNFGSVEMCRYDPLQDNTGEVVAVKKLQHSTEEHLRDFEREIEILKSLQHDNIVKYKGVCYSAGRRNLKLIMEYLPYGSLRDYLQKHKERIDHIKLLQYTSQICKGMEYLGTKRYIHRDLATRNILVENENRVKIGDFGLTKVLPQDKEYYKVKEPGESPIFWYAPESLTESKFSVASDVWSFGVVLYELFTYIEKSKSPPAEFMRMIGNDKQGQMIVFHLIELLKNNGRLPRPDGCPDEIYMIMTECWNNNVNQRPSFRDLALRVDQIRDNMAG
# stated conditions: at 0.1 µM
A collection of compounds and their measured inhibition
Give your result in % as a bare value.

Example compounds with recorded inhibition:
| structure string | assayed system | value units | inhibition |
| --- | --- | --- | --- |
| CCn1c(-c2nonc2N)nc2ccc(F)cc21 | Tyrosine-protein kinase JAK2 (Homo sapiens) (UniProt O60674) | % | 1.07 |
| CS(=O)(=O)CCNCc1nc(-c2ccc3ncnc(Nc4ccc(OCc5cccc(C(F)(F)F)c5)cc4)c3c2)cs1 | Tyrosine-protein kinase JAK2 (Homo sapiens) (UniProt O60674) | % | 1.09 |
| COC(=O)c1ccc2c(c1)C(=Cc1cc(Br)c(O)c(Br)c1)C(=O)N2 | Tyrosine-protein kinase JAK2 (Homo sapiens) (UniProt O60674) | % | 1.7 |
| CCOc1nccc2c1nc(-c1nonc1N)n2CC | Tyrosine-protein kinase JAK2 (Homo sapiens) (UniProt O60674) | % | 1.55 |
| NC(=O)c1sc(-n2cnc3ccccc32)cc1OCc1ccccc1Br | Tyrosine-protein kinase JAK2 (Homo sapiens) (UniProt O60674) | % | 1.97 |

Okay, now this compound:
inhibition in this record for COc1cccc(-n2ncc3c(N/N=C/c4ccc(S(C)(=O)=O)cc4)ncnc32)c1 : 1.22

* * *

Examples of compounds with documented inhibition follow.
# assayed system: Serine/threonine-protein kinase Sgk1 (Homo sapiens) (UniProt O00141);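 also: mean percent inhibition of SGK1, from the GSK PKIS screening panel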
# Sequence (O00141 whole entry): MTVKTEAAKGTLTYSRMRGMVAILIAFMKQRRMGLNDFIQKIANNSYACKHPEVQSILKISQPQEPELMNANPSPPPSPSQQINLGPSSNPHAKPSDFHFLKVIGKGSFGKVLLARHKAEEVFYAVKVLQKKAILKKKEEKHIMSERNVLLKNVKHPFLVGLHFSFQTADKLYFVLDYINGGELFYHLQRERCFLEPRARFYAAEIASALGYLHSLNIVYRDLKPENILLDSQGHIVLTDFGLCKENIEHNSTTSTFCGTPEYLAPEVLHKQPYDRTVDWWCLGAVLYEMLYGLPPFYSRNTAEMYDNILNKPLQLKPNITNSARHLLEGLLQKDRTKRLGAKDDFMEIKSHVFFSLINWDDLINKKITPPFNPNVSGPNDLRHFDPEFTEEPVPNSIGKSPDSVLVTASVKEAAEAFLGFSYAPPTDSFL
# stated conditions: at 1 µM
Please give a number only; it is taken to be in %.

Below are worked cases with known answers.
| compound | inhibition [%] |
| --- | --- |
| CN(C)CCCn1c(-c2nonc2N)nc2cnccc21 | 4.15 |
| COc1cc(/C=N/Nc2ncnc3c2cnn3C(C)C)ccc1O | 2.88 |
| CS(=O)(=O)CCNCc1nc(-c2ccc3ncnc(Nc4ccc(OCc5cccc(C(F)(F)F)c5)cc4)c3c2)cs1 | -1.85 |
| Cc1ccc(O)cc1Nc1ccnc2ccc(S(C)(=O)=O)cc12 | 6.8 |
| CCCN1CCCC(c2ccc(Nc3nc(Nc4cc(F)ccc4C(N)=O)c4cc[nH]c4n3)c(OC)c2)C1 (configuration not stated) | 4.78 |
| Cc1ccc(C(=O)NC2CC2)cc1-c1ccc2[nH]ncc2c1 | -1.16 |
| CCn1c(-c2nonc2N)nc2ccc(F)cc21 | 5.34 |
| NC(=O)c1sc(-n2cnc3ccccc32)cc1OCc1ccccc1Br | 2.46 |

Entry CCn1c(-c2nonc2N)nc2c(C#CC(C)(C)O)nc(OCCNC)cc21 ; inhibition = 2.66

The compound listed as NS(=O)(=O)c1cccc(-c2cc3ccncc3cc2OCc2ccccc2)c1 shows inhibition equal to 3.63

Input Cc1cc(O)cc(C)c1/C=C/c1cncc(C(=O)N(C)C)c1 . Output inhibition: 2.5

Entry under test: CCOc1nccc2c1nc(-c1nonc1N)n2CC . Its inhibition was 8.95

Consider Nc1nccc(C#Cc2cncnc2Nc2ccc(OCc3cccc(F)c3)c(Cl)c2)n1 . Its measured inhibition is 2.96

The reported value for N#Cc1c(NC(=O)c2ccccc2F)sc2c1CCCC2 in terms of inhibition is 0.65

inhibition recorded for this compound, c1ccc(Cc2nc3ccc(Nc4ncnc5ccccc45)cc3[nH]2)cc1 , is 6.43

For record Cc1ccc2c(-c3ccnc(Nc4ccc5c(c4)OCCO5)n3)c(-c3ccc(C(F)(F)F)cc3)nn2n1 the listed inhibition is 1.65

CN1CCN(C(=O)c2ccc(NC(=O)Nc3ccc(N(C)c4ccnc(Nc5ccc(CS(C)(=O)=O)cc5)n4)cc3)cc2)CC1 has a reported inhibition of 3.35

* * *

# System: Epidermal growth factor receptor (Homo sapiens), P00533 [L858R,T790M]
# Sequence (P00533 whole entry T790M/L858R, looked up): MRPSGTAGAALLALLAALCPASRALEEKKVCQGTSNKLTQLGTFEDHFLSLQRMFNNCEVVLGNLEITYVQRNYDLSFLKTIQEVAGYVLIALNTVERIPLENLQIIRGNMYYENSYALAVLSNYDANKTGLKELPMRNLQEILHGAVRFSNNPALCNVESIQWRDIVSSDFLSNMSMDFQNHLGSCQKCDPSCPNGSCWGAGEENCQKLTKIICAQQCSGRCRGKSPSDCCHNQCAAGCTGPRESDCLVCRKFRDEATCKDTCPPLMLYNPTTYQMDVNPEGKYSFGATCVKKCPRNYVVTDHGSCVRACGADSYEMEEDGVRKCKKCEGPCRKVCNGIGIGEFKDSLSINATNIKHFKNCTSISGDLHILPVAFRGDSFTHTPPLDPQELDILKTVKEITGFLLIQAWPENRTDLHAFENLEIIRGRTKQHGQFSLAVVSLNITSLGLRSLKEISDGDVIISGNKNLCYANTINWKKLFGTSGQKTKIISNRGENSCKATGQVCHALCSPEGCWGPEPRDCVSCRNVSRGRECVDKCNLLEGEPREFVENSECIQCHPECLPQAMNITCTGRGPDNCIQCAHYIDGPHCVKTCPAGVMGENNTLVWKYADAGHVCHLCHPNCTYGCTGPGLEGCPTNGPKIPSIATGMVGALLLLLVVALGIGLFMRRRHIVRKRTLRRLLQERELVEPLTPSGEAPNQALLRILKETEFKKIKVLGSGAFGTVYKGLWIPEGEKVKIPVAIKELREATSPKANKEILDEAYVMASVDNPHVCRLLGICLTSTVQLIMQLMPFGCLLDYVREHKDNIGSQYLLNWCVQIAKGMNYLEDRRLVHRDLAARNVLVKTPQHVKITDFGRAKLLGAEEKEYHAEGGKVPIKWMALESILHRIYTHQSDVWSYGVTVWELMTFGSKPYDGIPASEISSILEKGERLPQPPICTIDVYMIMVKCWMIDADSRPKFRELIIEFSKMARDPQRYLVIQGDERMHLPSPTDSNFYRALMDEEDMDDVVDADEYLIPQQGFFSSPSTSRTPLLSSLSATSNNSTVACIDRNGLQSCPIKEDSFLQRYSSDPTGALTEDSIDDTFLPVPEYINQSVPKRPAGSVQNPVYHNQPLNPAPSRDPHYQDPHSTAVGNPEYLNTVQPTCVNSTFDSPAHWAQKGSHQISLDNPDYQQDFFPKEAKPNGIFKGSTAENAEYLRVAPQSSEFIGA
# stated conditions: at 0.1 µM
The entries below come with measured inhibition values attached.
State just the number; it will be interpreted in %.

| structure string | assayed system | inhibition (%) |
| --- | --- | --- |
| NS(=O)(=O)c1cccc(Nc2cc(-c3ccc(F)cc3)n[nH]2)c1 | Epidermal growth factor receptor (Homo sapiens), P00533 [L858R,T790M] | 0.96 |
| COc1ccc2ncnc(Nc3ccc(OCc4ccccc4)cc3)c2c1 | Epidermal growth factor receptor (Homo sapiens), P00533 [L858R,T790M] | 2.24 |
| Cc1ccc2c(c1)/C(=N/Nc1ccc(S(N)(=O)=O)cc1)C(=O)N2 | Epidermal growth factor receptor (Homo sapiens), P00533 [L858R,T790M] | -4.55 |
| O=C1Nc2ccc(-c3cccnc3)cc2C1=Cc1cc(Br)c(O)c(Br)c1 | Epidermal growth factor receptor (Homo sapiens), P00533 [L858R,T790M] | 2.96 |
| N#Cc1c(NC(=O)c2ccccc2F)sc2c1CCCC2 | Epidermal growth factor receptor (Homo sapiens), P00533 [L858R,T790M] | -0.25 |

Reported inhibition ( C[C@@H](Oc1cc(-n2cnc3ccc(OC[C@@H](O)CO)cc32)sc1C(N)=O)c1ccccc1Cl ) = -1.15

Record NS(=O)(=O)c1ccc(Nc2cc(-c3cccc(O)c3)n[nH]2)cc1 . Reported inhibition: 4.99

The recorded inhibition for entry CN1CCN(C(=O)c2ccc(NC(=O)Nc3ccc(N(C)c4ccnc(Nc5ccc(CS(C)(=O)=O)cc5)n4)cc3)cc2)CC1 equals -1.16

Kindly note the recorded inhibition for COc1cc2ncn(-c3cc(OCc4ccccc4S(C)(=O)=O)c(C#N)s3)c2cc1OC , which is 16.9

GET /value?item= CC(C)c1ccc2c(c1)NC(=O)/C2=N/Nc1ccc(S(N)(=O)=O)cc1 &field=inhibition returns -0.97

* * *

# assayed system: Ephrin type-B receptor 2 (Homo sapiens) (UniProt P29323);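 also: reported as mean inhibition of EPHB2, from the GSK PKIS dataset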
# Sequence (P29323 whole entry): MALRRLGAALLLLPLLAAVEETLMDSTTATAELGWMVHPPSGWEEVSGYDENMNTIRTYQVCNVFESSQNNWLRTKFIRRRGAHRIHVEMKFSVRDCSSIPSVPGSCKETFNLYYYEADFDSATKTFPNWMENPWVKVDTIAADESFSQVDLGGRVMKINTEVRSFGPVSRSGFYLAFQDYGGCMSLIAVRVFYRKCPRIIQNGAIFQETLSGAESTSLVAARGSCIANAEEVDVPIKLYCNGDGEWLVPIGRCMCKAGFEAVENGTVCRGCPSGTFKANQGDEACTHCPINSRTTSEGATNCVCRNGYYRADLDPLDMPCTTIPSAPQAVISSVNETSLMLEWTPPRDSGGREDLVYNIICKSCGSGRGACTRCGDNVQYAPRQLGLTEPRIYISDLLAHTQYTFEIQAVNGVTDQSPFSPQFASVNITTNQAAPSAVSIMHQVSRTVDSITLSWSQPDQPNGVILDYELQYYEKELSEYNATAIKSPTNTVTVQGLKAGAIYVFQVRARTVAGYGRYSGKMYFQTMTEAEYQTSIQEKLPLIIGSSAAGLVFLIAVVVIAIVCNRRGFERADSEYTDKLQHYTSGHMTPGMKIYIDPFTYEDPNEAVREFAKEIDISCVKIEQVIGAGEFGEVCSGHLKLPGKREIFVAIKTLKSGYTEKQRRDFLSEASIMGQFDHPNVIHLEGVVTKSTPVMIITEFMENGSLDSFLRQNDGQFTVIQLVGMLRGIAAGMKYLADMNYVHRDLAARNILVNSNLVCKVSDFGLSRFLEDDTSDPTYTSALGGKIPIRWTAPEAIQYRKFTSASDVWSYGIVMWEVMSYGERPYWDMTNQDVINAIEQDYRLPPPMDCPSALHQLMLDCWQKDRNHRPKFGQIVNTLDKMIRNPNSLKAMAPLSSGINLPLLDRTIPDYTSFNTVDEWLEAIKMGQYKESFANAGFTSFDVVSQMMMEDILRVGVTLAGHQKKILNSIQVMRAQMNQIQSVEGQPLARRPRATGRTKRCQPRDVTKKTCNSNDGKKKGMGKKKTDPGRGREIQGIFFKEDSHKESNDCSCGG
# stated conditions: at 0.1 µM
measure name: inhibition (%)
Could you give me the number in %? Just the number is fine.

Ephrin type-B receptor 2 (Homo sapiens) (UniProt P29323) assay, molecule CN(C)CCCn1c(-c2nonc2N)nc2cnccc21 , recorded inhibition = 3.03
